Entry source: PubChem BioAssay AID1199

Kindly supply the reported Potency values for the records listed here.
tested on: mouse carcinogenicity bioassay, TD50 from CPDB; assay: DSSTox (CPDBAS) Carcinogenic Potency Database Summary Mouse Bioassay Results; details: TargetSites_Mouse_Female: no positive results

// returns Potency for O=C(O)[C@@H]1[C@H](C(=O)O)[C@@]2(Cl)C(Cl)=C(Cl)[C@]1(Cl)C2(Cl)Cl with mouse carcinogenicity bioassay, TD50 from CPDB; value = 0.363 mmol/kg/day

// returns Potency for CC(N)=O with mouse carcinogenicity bioassay, TD50 from CPDB; value = 51 mmol/kg/day

// returns Potency for Cl/C=C/CCl with mouse carcinogenicity bioassay, TD50 from CPDB; value = 1.06 mmol/kg/day

// returns Potency for Nc1c(F)c(N)c(F)c(F)c1F with mouse carcinogenicity bioassay, TD50 from CPDB; value = 0.341 mmol/kg/day

// returns Potency for COc1nn(CSP(=S)(OC)OC)c(=O)s1 with mouse carcinogenicity bioassay, TD50 from CPDB; value = 0.02 mmol/kg/day

// returns Potency for CC(=O)N[C@@H](CC(C)C)C(=O)N[C@@H](CC(C)C)C(=O)N[C@H](C=O)CCCN=C(N)N with mouse carcinogenicity bioassay, TD50 from CPDB; value = 0.131 mmol/kg/day

// returns Potency for CCOc1ccc(NC(C)=O)cc1[N+](=O)[O-] with mouse carcinogenicity bioassay, TD50 from CPDB; value = 10.1 mmol/kg/day

// returns Potency for C=CCOCC1CO1 (stereo not given) with mouse carcinogenicity bioassay, TD50 from CPDB; value = 1.59 mmol/kg/day

// returns Potency for CN(N=O)c1ncnc2nc[nH]c12 with mouse carcinogenicity bioassay, TD50 from CPDB; value = 0.101 mmol/kg/day

// returns Potency for CC/C(C)=N/O with mouse carcinogenicity bioassay, TD50 from CPDB; value = 6.13 mmol/kg/day

// returns Potency for COc1ccc(OC)c(/C=C/c2ccc(N)cc2)c1 with mouse carcinogenicity bioassay, TD50 from CPDB; value = 0.376 mmol/kg/day

// returns Potency for Cc1ccc(N=Nc2c(O)ccc3ccccc23)c([N+](=O)[O-])c1 with mouse carcinogenicity bioassay, TD50 from CPDB; value = 116 mmol/kg/day

// returns Potency for CC(C)(OCc1ccc(-c2ccc(Cl)cc2)cc1)C(=O)O with mouse carcinogenicity bioassay, TD50 from CPDB; value = 0.505 mmol/kg/day

// returns Potency for CCCCCCCCS(=O)C(C)Cc1ccc2c(c1)OCO2 (stereo not given) with mouse carcinogenicity bioassay, TD50 from CPDB; value = 0.192 mmol/kg/day

// returns Potency for OCc1ccco1 with mouse carcinogenicity bioassay, TD50 from CPDB; value = 2.68 mmol/kg/day

// returns Potency for Cc1cc(-c2ccc(N)c(C)c2)ccc1N with mouse carcinogenicity bioassay, TD50 from CPDB; value = 0.1 mmol/kg/day

// returns Potency for CCOc1ccc(NC(C)=O)cc1N with mouse carcinogenicity bioassay, TD50 from CPDB; value = 10.7 mmol/kg/day

// returns Potency for OC(c1ccc(Cl)cc1)(c1ccc(Cl)cc1)C(Cl)(Cl)Cl with mouse carcinogenicity bioassay, TD50 from CPDB; value = 0.0888 mmol/kg/day

// returns Potency for Nc1ccc(O)c(N)c1 with mouse carcinogenicity bioassay, TD50 from CPDB; value = 0.726 mmol/kg/day

// returns Potency for O=Nc1ccc(Nc2ccccc2)cc1 with mouse carcinogenicity bioassay, TD50 from CPDB; value = 1.72 mmol/kg/day
